Test system: HIV-IIIb IN T174I DE
Experiment: Antiviral assay in MT4 cells, HIV-IIIb IN T174I DE virus (from dose escalation passaging)
Format: cell-based, HIV-1
Conditions: Human immunodeficiency virus 1, IIIB, MT4, 120 h, read-out: T174I DE EC50, MT4 cells, HIV-IIIb IN T174I DE (dose escalation), 5 days, CellTiter-Glo
MEASUREMENT_TYPE: EC50 (nM)
Give the quantity in nM, number only.

Looking up `COCCN1CCN(c2nn(C)c3ccc(-c4nc5cc(C)c([C@H](OC(C)(C)C)C(=O)O)c(-c6ccc(Cl)cc6)c5s4)cc23)C1=O` , I found its EC50 recorded as 2180

Looking up COCCN1CCC(c2nn(C)c3ccc(-c4nc5cc(C)c([C@H](OC(C)(C)C)C(=O)O)c(-c6ccc(Cl)cc6)c5s4)cc23)C1 (stereo partly drawn) [Compound 65] , I found its EC50 recorded as 2120

Looking up `CC(=O)N1CC(N2CCC(c3nn(C(F)F)c4ccc(-c5nc6cc(C)c([C@H](OC(C)(C)C)C(=O)O)c(-c7ccc(Cl)cc7)c6s5)cc34)CC2)C1` , I found its EC50 recorded as 409

Looking up `Cc1cc2nc(-c3ccc4c(c3)c(C3CCN(C5COC5)CC3)nn4C(F)F)sc2c(-c2ccc(Cl)cc2)c1[C@H](OC(C)(C)C)C(=O)O` , I found its EC50 recorded as 1150

Looking up `CCn1nc2ccc(-c3nc4cc(C)c([C@H](OC(C)(C)C)C(=O)O)c(-c5ccc(Cl)cc5)c4s3)cc2c1C1CCN(C2COC2)CC1` , I found its EC50 recorded as 3580

Looking up `Cc1cc2nc(-c3ccc4c(c3)c(N3CCNC3=O)nn4C)sc2c(-c2ccc(Cl)cc2)c1[C@H](OC(C)(C)C)C(=O)O` , I found its EC50 recorded as 3190

Looking up `Cc1cc2nc(-c3ccc4c(c3)c(C3CCN(C5CN(C(=O)C6CC6)C5)CC3)nn4C)sc2c(-c2ccc(Cl)cc2)c1[C@H](OC(C)(C)C)C(=O)O` , I found its EC50 recorded as 210

Looking up `Cc1cc2nc(-c3ccc4c(n3)c(C3CCN(C5COC5)CC3)nn4C3CC3)sc2c(-c2ccc(Cl)cc2)c1[C@H](OC(C)(C)C)C(=O)O` , I found its EC50 recorded as 317

Looking up `CC(=O)N1CC(N2CCC(c3nn(C4CC4)c4ccc(-c5nc6cc(C)c([C@H](OC(C)(C)C)C(=O)O)c(-c7ccc(Cl)cc7)c6s5)cc34)CC2)C1` , I found its EC50 recorded as 287

Looking up `COC(=O)N1CC(N2CCC(c3nn(C)c4ncc(-c5nc6cc(C)c([C@H](OC(C)(C)C)C(=O)O)c(-c7ccc(Cl)cc7)c6s5)nc34)CC2)C1` , I found its EC50 recorded as 332

Looking up `COC1CN(c2nn(C)c3ccc(-c4nc5cc(C)c([C@H](OC(C)(C)C)C(=O)O)c(-c6ccc(Cl)cc6)c5s4)cc23)C1` , I found its EC50 recorded as 2580

Looking up `COC(=O)N1CC(N2CCC(c3cnn4ccc(-c5nc6cc(C)c([C@H](OC(C)(C)C)C(=O)O)c(-c7ccc(Cl)cc7)c6s5)nc34)CC2)C1` , I found its EC50 recorded as 559
